Ref: PubChem BioAssay (NCI)

- Tested on: U251 CNS
- assay_info: NCI-60 one-dose screen, 48 h
- condition_set: 10 µM unless noted
About 83,000 compounds went through this panel and 20% of them were active in at least one assay; those are over-represented in the sample as a whole. Activity calls are given as the source filed them. How the source made its calls: active means growth percent below 10; inactive means the rest.
Possible outcomes: YES = active, NO = inactive

• N#Cc1c(N)n2c(nc1=Nc1ccc([N+](=O)[O-])cc1)sc1cc(Cl)ccc12 = NO
• COC(=O)[C@]12CC[C@@H](C)[C@H](C)[C@@H]1C1=CC[C@@H]3[C@@]4(C)C(C=O)=C[C@@](C)(CO)C4=CC[C@@]3(C)[C@]1(C)CC2 = NO
• CC(C)c1ccc(C(=O)OC(=O)c2ccc(C(C)C)cc2)cc1 = NO
• Fc1ccc(Nc2nc(Nc3ccc(-c4nc5ccccc5[nH]4)cc3)c3cn[nH]c3n2)cc1 = NO
• O=C1C2=C(CCN(Cc3ccccc3)C2)N2CCN=C2N1Cc1ccc(C(F)(F)F)cc1 = NO
• Cc1nn(-c2ccccc2)c2c1C(c1ccc([N+](=O)[O-])cc1)C(C#N)=C(N)O2 (centres undefined) = NO
• O=[N+]([O-])c1ccccc1C(O)Cc1ccc2ccccc2n1 (centres undefined) = NO
• N#Cc1c(-c2ccc(C(F)(F)F)cc2)cc(N2CC(O)C2)n2c1nc1ccccc12 = NO
• CCOC(=O)Cc1csc2nc(-c3ccccc3)nn12 = NO
• COc1cc(-c2ccc(N=Nc3c(O)c(C(=O)Nc4ccccc4OC)cc4ccccc34)c(OC)c2)ccc1N=Nc1c(O)c(C(=O)Nc2ccccc2OC)cc2ccccc12 = NO
• O=C(/C=C/C12c3ccccc3C(c3ccccc31)C1C(=O)NC(=O)C12)c1ccccc1 (centres undefined) = NO
• Cc1cc(NS(=O)(=O)c2ccccc2)c(OS(=O)(=O)c2ccccc2)cc1C = NO
• Cc1c(C(=O)O)nnn1-c1nccs1 = NO
• COc1cc(/C=C2\C=C(c3ccccc3)N(CCc3ccccc3)C2=O)cc(OC)c1OC = NO
• C=C1c2c(C)nn(-c3ccc(N)cc3)c2N(C)C23CC1C1(C)c4c(C)nn(-c5ccc(N)cc5)c4N(C)C(C)(CC12)C3 (centres undefined) = NO
• CCOC(=O)c1nnn(-c2ccccc2)c1C1=CN(C)CCC1 = NO
• CCN(CC)CCCC(C)NCc1ccccc1 (centres undefined) = NO
• COc1ccc(-c2nc3sc4c(c3c(=O)[nH]2)CCCC4)c2ccccc12 = YES
• CN1CCN(c2ccc(Nc3ncc(Cl)c(NC[C@@H]4CCCO4)n3)cc2)CC1 = NO
